- test.system: 5-hydroxytryptamine receptor 1B (Homo sapiens)
- protocol.details: Binding affinity was evaluated at human recombinant 5-hydroxytryptamine 1B receptor using [3H]5-CT as radioligand
Listed below: pKi values for each entry.
Friendly reminder that pKi comes from taking -log10 of the concentration in mol/L.

Some entries whose results are on file:
CN1CCN(c2cccc3ccc(OCC(=O)Nc4ccc(NC(=O)COc5ccc6[nH]cc(CCN)c6c5)cc4)cc23)CC1 | 9.15
CCCN(CCC)C1CCc2cccc(OCCCCCCOc3cccc4c3CC(N(CCC)CCC)CC4)c2C1 (stereo unspecified) | 8.19
CN1CCN(c2cccc3ccc(OCCOc4ccc5cccc(N6CCN(C)CC6)c5c4)cc23)CC1 | 8.68
CN1CCN(c2cccc3ccc(OCC(=O)N4CCN(C(=O)COc5ccc6cccc(N7CCN(C)CC7)c6c5)CC4)cc23)CC1 | 8.59
c1ccc2c(N3CCNCC3)cccc2c1 | 7.97

--- query ---
Recorded pKi for CN1CCN(c2cccc3ccc(OCCOc4ccc5[nH]cc(CCN)c5c4)cc23)CC1 , please?
9.12

====

- test.system: 5-hydroxytryptamine receptor 1B (Homo sapiens, UniProt P28222)
- Sequence (P28222 whole entry): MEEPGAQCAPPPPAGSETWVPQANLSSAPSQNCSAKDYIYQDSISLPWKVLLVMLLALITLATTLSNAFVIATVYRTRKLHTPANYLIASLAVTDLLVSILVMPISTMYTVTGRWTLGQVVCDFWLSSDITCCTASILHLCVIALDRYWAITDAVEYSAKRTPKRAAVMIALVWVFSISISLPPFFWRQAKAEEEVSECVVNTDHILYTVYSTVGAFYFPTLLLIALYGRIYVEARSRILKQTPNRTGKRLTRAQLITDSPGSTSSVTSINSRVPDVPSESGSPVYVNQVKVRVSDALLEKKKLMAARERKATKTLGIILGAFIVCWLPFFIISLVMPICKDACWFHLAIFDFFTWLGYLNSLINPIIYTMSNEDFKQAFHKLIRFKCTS
- protocol.details: The intrinsic activity was evaluated for its ability to inhibit forskolin-stimulated c-AMP formation mediated by cloned 5-hydroxytryptamine 1B receptor in CHO cell line; Antagonist
- Type: functional, cell-based
pEC50: −log10 of the molar value.
assay.metric: pEC50

CN1CCN(c2cccc3ccc(OCCOc4ccc5cccc(N6CCN(C)CC6)c5c4)cc23)CC1 | < 6.00

I am curious: what pEC50 value has been reported for c1ccc2c(N3CCNCC3)cccc2c1 ?
< 5.00

====

Ki listing for selected molecules.
- test.system: 5-hydroxytryptamine receptor 1D (Homo sapiens)
- Sequence (P28221 whole entry): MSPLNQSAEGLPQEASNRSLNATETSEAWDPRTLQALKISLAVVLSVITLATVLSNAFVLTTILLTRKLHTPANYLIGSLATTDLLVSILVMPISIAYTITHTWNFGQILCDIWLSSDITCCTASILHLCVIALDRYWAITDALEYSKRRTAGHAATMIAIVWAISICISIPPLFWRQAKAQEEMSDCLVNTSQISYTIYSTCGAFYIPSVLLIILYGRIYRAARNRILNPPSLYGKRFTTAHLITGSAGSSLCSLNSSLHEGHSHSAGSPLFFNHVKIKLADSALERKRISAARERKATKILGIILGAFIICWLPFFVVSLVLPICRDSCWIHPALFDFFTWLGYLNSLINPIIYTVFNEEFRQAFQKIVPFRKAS
- protocol.details: Binding affinity was evaluated at human recombinant 5-hydroxytryptamine 1D receptor using [3H]-5-CT as radioligand
Give the quantity in nM, number only.

CN1CCN(c2cccc3ccc(OCCOc4ccc5cccc(N6CCN(C)CC6)c5c4)cc23)CC1 | 1.71
CN1CCN(c2cccc3ccc(OCC(=O)Nc4ccc(NC(=O)COc5ccc6[nH]cc(CCN)c6c5)cc4)cc23)CC1 | 0.5
CN1CCN(c2cccc3ccc(OCC(=O)N4CCN(C(=O)COc5ccc6cccc(N7CCN(C)CC7)c6c5)CC4)cc23)CC1 | 1.24
CN1CCN(c2cccc3ccc(OCCOc4ccc5[nH]cc(CCN)c5c4)cc23)CC1 | 0.4

Now let's try a different one.
# value lookup — system 5-hydroxytryptamine receptor 1D (Homo sapiens), readout Ki, item CCCN(CCC)C1CCc2cccc(OCCCCCCOc3cccc4c3CC(N(CCC)CCC)CC4)c2C1 (stereo not given)
3.9

====

- test.system: 5-hydroxytryptamine receptor 1A (Homo sapiens, UniProt P08908)
- Sequence (P08908 whole entry): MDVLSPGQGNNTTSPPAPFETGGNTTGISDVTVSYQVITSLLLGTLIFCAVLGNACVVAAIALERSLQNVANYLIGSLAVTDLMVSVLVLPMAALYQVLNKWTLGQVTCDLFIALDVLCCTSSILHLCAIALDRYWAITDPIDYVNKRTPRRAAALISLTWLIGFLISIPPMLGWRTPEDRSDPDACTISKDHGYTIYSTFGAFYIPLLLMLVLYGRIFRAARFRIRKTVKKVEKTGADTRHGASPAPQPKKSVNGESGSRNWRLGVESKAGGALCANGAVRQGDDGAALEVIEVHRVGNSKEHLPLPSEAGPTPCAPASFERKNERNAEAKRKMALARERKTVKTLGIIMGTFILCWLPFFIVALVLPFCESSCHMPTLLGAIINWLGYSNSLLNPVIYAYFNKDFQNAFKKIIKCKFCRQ
- protocol.details: Binding affinity was evaluated at human recombinant 5-hydroxytryptamine 1A receptor using [3H]8-OH-DPAT as radioligand
Recorded pKi values for a group of molecules are listed next.
Notebook: values listed as pKi are -log10 of the concentration (mol/L).

CCCN(CCC)C1CCc2cccc(OCCCCCCOc3cccc4c3CC(N(CCC)CCC)CC4)c2C1 (stereo not given) | 8.17
CN1CCN(c2cccc3ccc(OCCOc4ccc5cccc(N6CCN(C)CC6)c5c4)cc23)CC1 | 7.85
CN1CCN(c2cccc3ccc(OCC(=O)Nc4ccc(NC(=O)COc5ccc6[nH]cc(CCN)c6c5)cc4)cc23)CC1 | 8.24

Hi! What's the reported pKi for CN1CCN(c2cccc3ccc(OCC(=O)N4CCN(C(=O)COc5ccc6cccc(N7CCN(C)CC7)c6c5)CC4)cc23)CC1 on 5-hydroxytryptamine receptor 1A (Homo sapiens, UniProt P08908)?
8.40

Fill in the recorded pKi for this molecule, with 5-hydroxytryptamine receptor 1A (Homo sapiens, UniProt P08908) as test system: CN1CCN(c2cccc3ccc(OCCOc4ccc5[nH]cc(CCN)c5c4)cc23)CC1
9.02
